- testedTarget: 4'-phosphopantetheinyl transferase ffp (Bacillus subtilis)
- methodSummary: qHTS Assay for Inhibitors of Bacillus subtilis Sfp phosphopantetheinyl transferase (PPTase);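 further: the enzyme is Sfp with the accession as filed and its product quenches rhodamine fluorescence; potency means the concentration at half of the fitted maximal effect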
- testConditions: Biochemical Sfp PPTase activity
The campaign covered roughly 310,000 compounds. About 11,000 (3.5%) were called active. About 4% were inconclusive and are not listed. This is one part of a sample in which actives are shown more often than they occur.
observable: Potency

Some compounds with recorded Potency:
1. COc1ccccc1-n1c(-c2cc(-c3ccco3)[nH]n2)n[nH]c1=S: 50.1 µM (active)
2. S=c1[nH]nc(-c2cc(-c3ccccc3)n[nH]2)n1/N=C/c1c2ccccc2cc2ccccc12: 50.1 µM (active)
3. Cc1cc(=O)[nH]c(=S)[nH]1: 31.6 µM (active)
4. S=c1[nH]c(-c2cccs2)cn1-c1ccccc1: 15.8 µM (active)
5. CCn1c(-c2ccncc2)n[nH]c1=S: 39.8 µM (active)

Each compound below has a reported value. Please supply its Potency.
1. Cc1ccc(-c2ccc(/C=N/NC(=O)CN3CCOCC3)o2)cc1[N+](=O)[O-]
2. Cn1c(SCc2nc3ccccc3s2)nnc1-c1ccc2c(c1)OCO2
3. CCN1CCN(CCNC(=O)c2ccc(/C=C3/Sc4ccccc4N(Cc4cccc(C)c4)C3=O)cc2)CC1
4. C/C=C\C=C\C(=O)N1CC2(CC(c3cccc(NC(=O)/C(C)=C\C)c3)=NO2)C[C@H]1C(N)=O (stereo partly specified)
5. COc1ccc(Cc2nc(-c3ccccn3)no2)cc1OC
6. CC(=O)N1CC[n+]2c(-c3ccc([N+](=O)[O-])cc3)csc21

1: 50.1 µM (active); 2: 14.1 µM (active); 3: 39.8 µM (active); 4: 15.8 µM (active); 5: 79.4 µM (active); 6: 5.62 µM (active)
